This section presents compounds with their documented Plant response rating, Soybean values.
Test system: soybean
assay_notes: Test B pre/postemergence soybean
Assay type: in vivo, Glycine max
reported_conditions: Preemergence, Rate 500 g/ha; scale of 0 to 10 where 0 is no effect and 10 is complete control
endpoint_label: Plant response rating, Soybean

- COC(=O)C=CCn1c(=O)on(C(=O)N(c2ccc(F)cc2)C(C)C)c1=O: 0
- CC(C)N(C(=O)n1oc(=O)n(C(C)CBr)c1=O)c1ccc(F)cc1F (stereo not shown): 4
- COC(=O)C(CCO)n1c(=O)on(C(=O)N(c2ccc(Cl)cc2)C(C)C)c1=O (stereo not shown): 0
- CC(C)N(C(=O)n1oc(=O)n(COCc2ccccc2)c1=O)c1ccc(F)cc1: 0

---

System: wheat
assay_notes: Test B pre/postemergence wheat
Assay type: in vivo, Triticum aestivum
reported_conditions: Preemergence, Rate 500 g/ha; scale of 0 to 10 where 0 is no effect and 10 is complete control
Measured Wheat plant response rating, listed per entry.
endpoint_label: Wheat plant response rating

• CC(=O)OCCCCn1c(=O)on(C(=O)N(c2ccc(Cl)cc2)C(C)C)c1=O [Compound 536] = 0
• CCOC(=O)C(C)N(C(=O)n1oc(=O)n(C)c1=O)c1ccc(F)cc1 (centres unmarked) [Compound 365] = 0
• CC(C)N(C(=O)n1oc(=O)n(CCCF)c1=O)c1ccc(F)cc1F [Compound 500] = 8
• CC(C)N(C(=O)n1oc(=O)n(CCc2ccccc2)c1=O)c1ccccc1 [Compound 567] = 0
• CC(C)N(C(=O)n1oc(=O)n(CC2CCOC2)c1=O)c1ccc(F)cc1 (centres unmarked) [Compound 375] = 3
• CC(C)N(C(=O)n1oc(=O)n(N2C(C)CCCC2C)c1=O)c1ccc(F)cc1F (centres unmarked) [Compound 383] = 0
• CC(C)N(C(=O)n1oc(=O)n(CC2CCC2)c1=O)c1ccc(Cl)cc1 [Compound 550] = 2
• CC(C)N(C(=O)n1oc(=O)n(CCCNC(=O)CCl)c1=O)c1ccccc1 [Compound 493] = 0

---

Each record here notes measured Velvetleaf plant response rating.
System: velvetleaf
assay_notes: Test B pre/postemergence velvetleaf
Format: in vivo, Abutilon theophrasti
reported_conditions: Preemergence, Rate 250 g/ha; scale of 0 to 10 where 0 is no effect and 10 is complete control
endpoint_label: Velvetleaf plant response rating

- COC(=O)C=CCn1c(=O)on(C(=O)N(c2ccc(F)cc2)C(C)C)c1=O [Compound 263]: 0
- CC(C)N(C(=O)n1oc(=O)n(COCc2ccccc2)c1=O)c1ccc(F)cc1 [Compound 261]: 0
- CC(C)N(C(=O)n1oc(=O)n(C2CCC2)c1=O)c1ccc(F)cc1F [Compound 351]: 4

---

System: giant foxtail
assay_notes: Test B pre/postemergence giant foxtail
Type: in vivo, Setaria faberii
reported_conditions: Preemergence, Rate 250 g/ha; scale 0 (no effect) to 10 (complete control)
endpoint_label: Giant foxtail plant response rating

* CC(C)N(C(=O)n1oc(=O)n(CC2=NOCC2)c1=O)c1ccccc1 [Compound 706] | 7
* CC(CBr)Cn1c(=O)on(C(=O)N(c2ccc(F)cc2)C(C)C)c1=O (stereo not drawn) [Compound 752] | 10
* CC(C)N(C(=O)n1oc(=O)n(CCCCl)c1=O)c1ccc(F)cc1 [Compound 713] | 10

---

Tested on: cocklebur
assay_notes: Test B pre/postemergence cocklebur
Assay type: in vivo, Xanthium strumarium
reported_conditions: Preemergence, Rate 500 g/ha; scale of 0 to 10 where 0 is no effect and 10 is complete control
Procedure: […] At the same time, these crop and weed species were also treated with postemergence applications of test chemicals formulated in the same manner. […] Treated plants and controls were maintained in a greenhouse for twelve to sixteen days, after which all species were compared to controls and visually evaluated. […]
endpoint_label: Plant response rating, Cocklebur

* Cc1ccccc1-n1c(=O)on(C(=O)N(c2ccc(Oc3ccccc3)cc2)C(C)C)c1=O | 0
* CC(C)N(C(=O)n1oc(=O)n(CCC(=O)N(C)C)c1=O)c1ccc(F)cc1 | 9
* CC1Cc2cccc(-n3c(=O)on(C(=O)N(c4ccc(F)cc4)C(C)C)c3=O)c2O1 (stereo not drawn) | 0

---

System: wild oat
assay_notes: Test B pre/postemergence wild oat
Type: in vivo, Avena fatua
reported_conditions: Preemergence, Rate 250 g/ha; scale of 0 to 10 where 0 is no effect and 10 is complete control
endpoint_label: Wild oats plant response rating

* CC(C)N(C(=O)n1oc(=O)n(N2CCOCC2)c1=O)c1ccc(F)cc1 [Compound 385] | 7
* CCN(C(=O)n1oc(=O)n(C(C)C)c1=O)C1CCCCC1 [Compound 309] | 0
* Cc1ccccc1-n1c(=O)on(C(=O)N(c2ccc(C(C)C)cc2)C(C)C)c1=O [Compound 231] | 0
* CC(C)N(C(=O)n1oc(=O)n(Cc2ccccc2-c2ccccc2)c1=O)c1ccc(F)cc1 [Compound 313] | 0

---

Tested on: sugar beet
assay_notes: Test B pre/postemergence sugar beet
Type: in vivo, Beta vulgaris
reported_conditions: Rate 125 g/ha; Postemergence; scale 0 to 10, 0 no effect, 10 complete control
endpoint_label: Sugarbeets plant response rating

* Cc1ccccc1Cn1c(=O)on(C(=O)N(C)c2ccccc2)c1=O [Compound 85] | 0
* CC(C)N(C(=O)n1oc(=O)n(-c2ccc(F)cc2F)c1=O)c1ccc(F)cc1F [Compound 22] | 0
* CCN(Cc1ccccc1)C(=O)n1oc(=O)n(-c2ccccc2C)c1=O [Compound 71] | 0

---

Tested on: pigweed
assay_notes: Test B pre/postemergence pigweed
Format: in vivo, Amaranthus retroflexus
reported_conditions: Preemergence, Rate 62 g/ha; scale of 0 to 10 where 0 is no effect and 10 is complete control
Response key: Y means Redroot pigweed plant response rating >= 3; N means Redroot pigweed plant response rating < 3.

- C=CCCCn1c(=O)on(C(=O)N(c2ccc(F)cc2)C(C)C)c1=O: N
- CC(C)N(C(=O)n1oc(=O)n(C[C@H](C)Cl)c1=O)c1ccc(F)cc1F: Y
- Cc1ccccc1-n1c(=O)on(C(=O)N(c2ccc(C(C)C)cc2)C(C)C)c1=O: N
- CC(C)N(C(=O)n1oc(=O)n(CCF)c1=O)c1ccccc1: Y
- CC1Cc2cccc(-n3c(=O)on(C(=O)N(c4ccc(F)cc4)C(C)C)c3=O)c2O1 (stereo not drawn): N
- CC(C)N(C(=O)n1oc(=O)n(C2CC3CCC2C3)c1=O)c1ccc(F)cc1 (stereo not drawn): N
- Cc1cccc(C(C)(C)C)c1-n1c(=O)on(C(=O)N(c2ccccc2)C(C)C)c1=O: N
- CC(C)N(C(=O)n1oc(=O)n(CCCCF)c1=O)c1ccc(F)cc1: Y

---

Test system: blackgrass
assay_notes: Test B pre/postemergence blackgrass
Assay type: in vivo, Alopecurus myosuroides
reported_conditions: Preemergence, Rate 62 g/ha; scale of 0 to 10 where 0 is no effect and 10 is complete control
Some molecules, each annotated with its measured Plant response rating, Blackgrass.
endpoint_label: Plant response rating, Blackgrass

* COC(OC)C(C)n1c(=O)on(C(=O)N(c2ccc(F)cc2)C(C)C)c1=O (stereo not drawn) | 9
* CC(C)N(C(=O)n1oc(=O)n(CCCNC(=O)CCl)c1=O)c1ccccc1 | 0
* CC(=O)OCCCCn1c(=O)on(C(=O)N(c2ccc(F)cc2F)C(C)C)c1=O | 0

---

Test system: wheat
assay_notes: Test B pre/postemergence wheat
Format: in vivo, Triticum aestivum
reported_conditions: Preemergence, Rate 62 g/ha; scale of 0 to 10 where 0 is no effect and 10 is complete control
endpoint_label: Wheat plant response rating

* C=CCCCn1c(=O)on(C(=O)N(c2ccc(F)cc2)C(C)C)c1=O | 0
* CC(C)N(C(=O)n1oc(=O)n(C[C@H](C)Cl)c1=O)c1ccc(F)cc1F | 0
* CC(C)N(C(=O)n1oc(=O)n(C2CC3CCC2C3)c1=O)c1ccccc1 (stereo not drawn) | 0

---

Tested on: blackgrass
assay_notes: Test B pre/postemergence blackgrass
Type: in vivo, Alopecurus myosuroides
reported_conditions: Rate 250 g/ha; Postemergence
Plant response rating (0 to 10; 0 is no effect, 10 is complete control), Blackgrass values by entry
endpoint_label: Plant response rating (0 to 10; 0 is no effect, 10 is complete control), Blackgrass

• Cc1nc(C)c(Cn2c(=O)on(C(=O)N(c3ccc(F)cc3F)C(C)C)c2=O)s1 [Compound 233] = 2
• Cc1ccccc1-n1c(=O)on(C(=O)N(c2ccc(F)cc2Cl)C(C)C)c1=O [Compound 186] = 4
• CC(C)N(C(=O)n1oc(=O)n(CCC2OCCO2)c1=O)c1ccc(F)cc1 [Compound 219] = 8

---

System: bamyardgrass
assay_notes: Test B flood test barnyardgrass
Assay type: in vivo, Echinochloa crus-galli
reported_conditions: Rate 500 g/ha, Pre-emergence section of Table B; 0 to 10 scale (0 no effect, 10 complete control)
endpoint_label: Barnyardgrass plant response rating

- CC(C)N(C(=O)n1oc(=O)n(CC(C)[N+](=O)[O-])c1=O)c1ccc(F)cc1F (centres unmarked): 0
- CC(C)N(C(=O)n1oc(=O)n(CC2CCC2)c1=O)c1ccc(Cl)cc1: 0
- CC(C)N(C(=O)n1oc(=O)n(CC2=NOCC2)c1=O)c1ccccc1: 0
- CC(C)N(C(=O)n1oc(=O)n(CC(=O)C2CCC2)c1=O)c1ccc(F)cc1F: 0
- CC(C)N(C(=O)n1oc(=O)n(CCC2OCCCO2)c1=O)c1ccc(Cl)cc1: 9
